# System: A431
# Protocol: filipin (cholesterol) integrated intensity within LBPA endosomes, Z-score; higher = more cholesterol in LBPA endosomes
# Experimental Conditions: compound concentration in added solution (µM; 5 µl added to 20 µl cells): 10; 18 h
Readout Type: filipin (z-score)

Chem Smiles: O=C(CCCN1CCN(c2ccccn2)CC1)c1ccc(F)cc1
Measured Target: A431
Reading: -0.168
//
Chem Smiles: CCOc1ccc(NC(C)=O)cc1
Measured Target: A431
Reading: -0.555
//
Chem Smiles: CCC(=O)O[C@@H](O[P@](=O)(CCCCc1ccccc1)CC(=O)N1C[C@H](C2CCCCC2)C[C@H]1C(=O)O)C(C)C
Measured Target: A431
Reading: -0.364
//
Chem Smiles: Oc1ncnc2[nH]ncc12
Measured Target: A431
Reading: -0.415
//
Chem Smiles: c1ccc2c(c1)CCCc1cc(NCCN3CCOCC3)nnc1-2
Measured Target: A431
Reading: -0.491

----------
# Test system: HeLa MZ
# Protocol: filipin (cholesterol) integrated intensity within LBPA endosomes, Z-score; higher = more cholesterol in LBPA endosomes
# Experimental Conditions: compound concentration in added solution (µM; 5 µl added to 20 µl cells): 10; 18 h
Where a name gives a salt, the structure may show the parent alone.
# key: entry, value: filipin (z-score)

Molecule: Cc1cccc(C)c1NC(=O)C(C)N (stereo not given) [Tocainide hydrochloride]
filipin (z-score): -0.603
--
Molecule: CC(C)(C)C(=O)OCOC(=O)[C@@H]1N2C(=O)[C@@H](NC(=O)[C@H](N)c3ccccc3)[C@H]2SC1(C)C
filipin (z-score): -0.41
--
Molecule: N=C(N)NC(=O)c1nc(Cl)c(N)nc1N [Amiloride hydrochloride dihydrate]
filipin (z-score): -0.551
--
Molecule: COc1cc(C)c(/C=C/C(C)=C/C=C/C(C)=C/C(=O)O)c(C)c1C
filipin (z-score): -0.258
--
Molecule: CN(C)CCOC(c1ccccc1)c1ccccc1.Cn1c(=O)c2[nH]c(Cl)nc2n(C)c1=O [Dimenhydrinate]
filipin (z-score): -0.165
--
Molecule: CC(=O)c1ccc2c(c1)N(CCCN1CCC(CCO)CC1)c1ccccc1S2
filipin (z-score): 3.21
--
Molecule: Cc1oncc1C(=O)Nc1ccc(C(F)(F)F)cc1 [Leflunomide]
filipin (z-score): -0.555
--
Molecule: Nc1ccc(C(=O)NCC(=O)O)cc1
filipin (z-score): -0.359
--
Molecule: CCN(CC)CCCC(C)Nc1ccnc2cc(Cl)ccc12 (stereo not given) [Chloroquine diphosphate]
filipin (z-score): 1.26
--
Molecule: CCOC(=O)[C@H](CCc1ccccc1)N[C@@H](C)C(=O)N1[C@H](C(=O)O)C[C@@H]2CCC[C@@H]21
filipin (z-score): -0.529
--
Molecule: CC(CN1c2ccccc2Sc2ccccc21)N(C)C (stereo not given) [Promethazine hydrochloride]
filipin (z-score): 1.73
--
Molecule: Nc1nc(=O)c2c([nH]1)NC[C@@H](CNc1ccc(C(=O)N[C@@H](CCC(=O)O)C(=O)O)cc1)N2C=O [Folinic acid calcium salt]
filipin (z-score): -0.42
--
Molecule: CCOC(=O)[N-]c1c[n+](N2CCOCC2)no1
filipin (z-score): -0.532
--
Molecule: O=C(COc1ccc(Cl)cc1)N1CCN(Cc2ccc3c(c2)OCO3)CC1 [Fipexide hydrochloride]
filipin (z-score): -0.495
--
Molecule: CCOC(=O)[C@H](CCc1ccccc1)N[C@@H](C)C(=O)N1CCC[C@H]1C(=O)O [Enalapril maleate]
filipin (z-score): -0.713
